test system: Bord. bronchis. 4.617; assay: M.I.C. in vitro, nutrient agar dilution; type: cell-based; conditions: 18 h; Table 2; Bord. bronchis. 4.617 (Gram negative); read-out: M.I.C.
readout_kind: MIC (µg/mL)

- CCn1cc(C(=O)O)c(=O)c2ccc(N3CCN(C)CC3)cc21 [Example T1, reference compound]: 25
- CCn1cc(C(=O)O)c(=O)c2cc(Cl)c(N3CCN(CCO)CC3)cc21: 6.2
- CCn1cc(C(=O)O)c(=O)c2ccc(N3CCN(CCO)CC3)cc21 [Example T4, reference compound]: 100
- CCn1cc(C(=O)O)c(=O)c2cc(Cl)c(N3CCOCC3)cc21: 12.5
- CCn1cc(C(=O)O)c(=O)c2cc(Cl)c(N3CCN(Cc4ccccc4)CC3)cc21: 12.5
